System: Mycobacterium tuberculosis
Assay: Cornell M. t heat shock assay; further: in the data most compounds retested in dose-response had high values
Type: functional, organism-based
Design: dose or concentration left out as unconfirmed
In all, about 69,000 compounds went through this assay and about 950 (1.4%) showed an effect of 50% or more. What follows is part of a selection rich in strong results, with near analogues and random picks from the rest.
assay-metric: Percent Effect
Answer by giving the amount and then stating its unit.

As a guide, the following entries are already answered.
CN1CC(=O)N(c2cccc(F)c2)CC12CCN(S(C)(=O)=O)C2.O=C(O)C(F)(F)F (stereo unspecified)    -1.241%
O=C(O)C(F)(F)F.O=C(O)C(F)(F)F.O=C1CO[C@@H]2CN(Cc3nccs3)C[C@H]2N1Cc1ccncc1    -20.96%
O=c1[nH]c(-c2ccccn2)nc2c1CCN(S(=O)(=O)N1CCCC1)C2    87.3%
CCS(=O)(=O)N1CCN(CCOC)c2ncccc2C1    7.581%
COCCn1ccc(=O)c(OCC(=O)Nc2ccc(Br)cc2)c1C    17.79%

**Query** Which measured Percent Effect value corresponds to `O=c1[nH]c(-c2ccccc2)nc2c1CCN(S(=O)(=O)N1CCCC1)C2` ?
**Result** 5.135%

**Query** Which measured Percent Effect value corresponds to `Cc1cccc(CN2C[C@@H]3COC[C@]3(CNC(=O)c3ccccc3)C2)n1.O=C(O)C(F)(F)F.O=C(O)C(F)(F)F` ?
**Result** -15.75%

**Query** Which measured Percent Effect value corresponds to `Cl.c1nc(N2CCOCC2)sc1-c1cncn1CCCN1CCCCC1` ?
**Result** -3.925%

**Query** Which measured Percent Effect value corresponds to `CSc1ncccc1C(=O)Nc1ccc(Cn2ccccc2=O)cc1` ?
**Result** 5.912%

**Query** Which measured Percent Effect value corresponds to `CS(=O)(=O)c1nccn1Cc1ccc(C(N)=O)cc1` ?
**Result** 2.892%

**Query** Which measured Percent Effect value corresponds to `CCOCC(=O)Nc1nccn1Cc1ccc(Br)cc1` ?
**Result** 106.8%
